As shown below, each of these compounds has a reported EC50 value.
# Tested on: Streptococcus
# assay.protocol: Group A Streptococcus viability loss, dose response, counter-screen for streptokinase expression inhibitor project, luminescence, BacTiterGlo (AID 1915);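 also: potency for reduction of bacterial viability or growth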
# Assay type: functional, organism-based
Activity calls are given as the source filed them.

Some solved cases for reference:
compound: Nc1nc(Nc2ccccc2)nc(NC2CCCCC2)c1[N+](=O)[O-]
assayed.target: Streptococcus
result: 8.07 µM (active)

compound: Fc1ccc(CO/N=C/C2=C(Cl)c3ccccc3CC2)cc1
assayed.target: Streptococcus
result: > 150 µM (not active)

compound: CC(=O)N(C1=C(Cl)C(=O)c2ccccc2C1=O)C1CCCCC1
assayed.target: Streptococcus
result: > 150 µM (not active)

Input: Provide measured EC50 on Streptococcus for CC(C)(C)c1ccc2c(c1)OC(C(=O)N/N=C/c1ccc([N+](=O)[O-])o1)CO2 (stereo not drawn) please.
Output: 10.3 µM (active)

Input: Provide measured EC50 on Streptococcus for Cc1cc(C)n(-c2nc(Nc3ccccc3C(F)(F)F)nc(-n3nc(C)cc3C)n2)n1 please.
Output: 8.12 µM (active)

Input: Provide measured EC50 on Streptococcus for CCCOC(=O)c1ccc(Oc2c(C)n[nH]c2-c2ccc(OCC)cc2O)cc1 please.
Output: > 150 µM (not active)

Input: Provide measured EC50 on Streptococcus for N#C/C(=C(/O)COc1ccccc1)c1nc2ccccc2s1 please.
Output: > 150 µM (not active)

Input: Provide measured EC50 on Streptococcus for CCOC(=O)c1csc(NC(=O)c2ccc3c(c2)OCCO3)n1 please.
Output: > 150 µM (not active)

====

As shown below, each of these compounds has a reported EC50 value.
# assay.protocol: Luminescence Cell-Based Dose Confirmation HTS to Identify Activators of 5'UTR Stem-Loop Driven Alpha-Synuclein mRNA Translation in H4 Neuroglioblastoma Cells. [Related pubchem assays: 1829 (Project Summary), 1814 (Primary HTS)]
# Format: functional
The source made the active and inactive calls.

Some solved cases for reference:
compound: CCOC(=O)/C(C#N)=C/N=c1/ccc(C)cn1C
EC50: 53.5 µM (active)
--
compound: C(=N\Nc1nc(-c2ccccc2)cs1)/c1ccco1
EC50: 5.18 µM (active)
--
compound: Brc1ccc2oc3c(N4CCOCC4)ncnc3c2c1
EC50: 18.5 µM (active)

Input: Check the records and state EC50 for COc1ccc2cc(OCC(=O)NNC(=O)Nc3ccc(C(C)=O)cc3)ccc2c1
Output: 12.4 µM (active)

Input: Check the records and state EC50 for CCCCc1noc2c1/C(=N\O)CC(c1ccccc1)C2 (configuration not stated)
Output: > 120 µM (not active)

Input: Check the records and state EC50 for O=C(/C=C(/c1ccc(Cl)cc1)n1cncn1)c1ccccc1
Output: > 120 µM (not active)

Input: Check the records and state EC50 for COC(=O)c1ccc(-n2cnc3ccccc32)nc1
Output: 14.1 µM (active)

====

# assayed.target: Histone-lysine N-methyltransferase NSD2 (Homo sapiens)
# Sequence (O96028 whole entry): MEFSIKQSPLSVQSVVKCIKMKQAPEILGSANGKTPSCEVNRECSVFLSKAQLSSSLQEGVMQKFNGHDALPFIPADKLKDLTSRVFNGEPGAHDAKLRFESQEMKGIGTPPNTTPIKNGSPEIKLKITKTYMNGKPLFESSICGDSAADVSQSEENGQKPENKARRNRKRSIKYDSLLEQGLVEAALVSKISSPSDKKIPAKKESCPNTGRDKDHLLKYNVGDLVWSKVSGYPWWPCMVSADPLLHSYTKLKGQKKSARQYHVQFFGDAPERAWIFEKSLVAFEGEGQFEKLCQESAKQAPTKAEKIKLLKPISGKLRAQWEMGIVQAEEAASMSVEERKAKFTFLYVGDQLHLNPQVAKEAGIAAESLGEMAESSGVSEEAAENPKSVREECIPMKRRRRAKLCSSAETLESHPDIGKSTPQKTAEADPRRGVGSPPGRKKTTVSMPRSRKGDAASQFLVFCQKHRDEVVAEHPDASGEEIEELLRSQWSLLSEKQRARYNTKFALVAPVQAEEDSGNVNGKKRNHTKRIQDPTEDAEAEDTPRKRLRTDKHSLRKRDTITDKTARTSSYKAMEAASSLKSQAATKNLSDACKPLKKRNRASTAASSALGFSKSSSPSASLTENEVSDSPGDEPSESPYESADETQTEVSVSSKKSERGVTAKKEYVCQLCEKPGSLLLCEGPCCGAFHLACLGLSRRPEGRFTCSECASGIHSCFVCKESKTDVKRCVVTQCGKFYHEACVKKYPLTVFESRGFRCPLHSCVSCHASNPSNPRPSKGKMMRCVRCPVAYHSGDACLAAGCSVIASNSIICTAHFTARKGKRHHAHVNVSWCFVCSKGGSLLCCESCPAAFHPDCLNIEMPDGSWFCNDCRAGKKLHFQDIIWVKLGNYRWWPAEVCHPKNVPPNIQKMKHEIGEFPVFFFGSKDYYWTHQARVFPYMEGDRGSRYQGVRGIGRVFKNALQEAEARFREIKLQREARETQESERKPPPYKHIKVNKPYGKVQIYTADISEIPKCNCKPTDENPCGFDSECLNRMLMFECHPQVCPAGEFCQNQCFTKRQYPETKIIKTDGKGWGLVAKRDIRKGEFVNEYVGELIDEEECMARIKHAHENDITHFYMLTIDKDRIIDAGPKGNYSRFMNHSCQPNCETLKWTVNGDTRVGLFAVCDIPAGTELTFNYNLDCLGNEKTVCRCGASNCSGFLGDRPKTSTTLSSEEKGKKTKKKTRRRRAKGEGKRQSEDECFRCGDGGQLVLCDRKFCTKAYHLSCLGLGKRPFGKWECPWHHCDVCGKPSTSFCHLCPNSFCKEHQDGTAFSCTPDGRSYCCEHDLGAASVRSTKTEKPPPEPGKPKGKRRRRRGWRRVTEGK
# Assay type: biochemical
Calls of active or inactive are those of the source.
Permitted responses: active, inactive

Some solved entries appear below for comparison.
compound: O=C(O)c1cccc(-n2cccc2/C=N/O)c1
category: active

compound: CCN(CC)CCCNc1cc(C)nc2cc(-c3cccs3)nn12
category: inactive

compound: Oc1ccc(-c2cn3c(n2)SCC3)cc1O
category: active

Input: Outcome? COc1ccc(/C=N/NC(=O)c2nn(-c3ccccc3)c(=O)c3c(N)scc23)cc1
Output: inactive

====

AC50 values recorded for UniProt:P05177
Sequence (P05177 whole entry): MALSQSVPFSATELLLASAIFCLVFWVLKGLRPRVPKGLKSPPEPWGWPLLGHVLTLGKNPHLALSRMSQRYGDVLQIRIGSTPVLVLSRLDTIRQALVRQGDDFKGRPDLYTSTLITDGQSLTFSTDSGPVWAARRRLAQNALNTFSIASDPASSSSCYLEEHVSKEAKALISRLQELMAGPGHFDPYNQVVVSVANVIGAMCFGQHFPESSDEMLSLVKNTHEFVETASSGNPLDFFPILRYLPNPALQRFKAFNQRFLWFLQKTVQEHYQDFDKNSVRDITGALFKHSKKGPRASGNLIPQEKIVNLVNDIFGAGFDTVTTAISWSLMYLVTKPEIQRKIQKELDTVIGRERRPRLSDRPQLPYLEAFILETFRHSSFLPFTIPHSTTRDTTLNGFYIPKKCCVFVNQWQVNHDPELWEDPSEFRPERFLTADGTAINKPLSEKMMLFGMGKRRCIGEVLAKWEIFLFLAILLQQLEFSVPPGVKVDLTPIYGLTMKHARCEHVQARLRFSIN

compound: O=C(OCc1ccc(Cl)cc1)c1ccccc1C(=O)c1ccccc1
parameter.measured: AC50
result: 3.55 µM (inconclusive)

compound: Cc1n[nH]c(SC(C(=O)c2ccccc2)c2ccccc2)n1 (centres undefined)
parameter.measured: AC50
result: 39.8 µM (inconclusive)

compound: CCNc1ncc2nc(-c3cc(F)cc(F)c3)c(=O)n(CCc3ccccc3)c2n1
parameter.measured: AC50
result: 25.1 µM (inconclusive)

// moving on: another record for AC50
Input: Check the records and state AC50 for COc1cc(C(=O)N2CCN(C(=O)c3ccccc3)CC2)cc(OC)c1OC
Output: 2.51 µM (inconclusive)

====

# assayed.target: Estrogen receptor (Homo sapiens, UniProt P03372);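 also: potency for inhibiting coactivator peptide recruitment to the receptor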
# Sequence (P03372 whole entry): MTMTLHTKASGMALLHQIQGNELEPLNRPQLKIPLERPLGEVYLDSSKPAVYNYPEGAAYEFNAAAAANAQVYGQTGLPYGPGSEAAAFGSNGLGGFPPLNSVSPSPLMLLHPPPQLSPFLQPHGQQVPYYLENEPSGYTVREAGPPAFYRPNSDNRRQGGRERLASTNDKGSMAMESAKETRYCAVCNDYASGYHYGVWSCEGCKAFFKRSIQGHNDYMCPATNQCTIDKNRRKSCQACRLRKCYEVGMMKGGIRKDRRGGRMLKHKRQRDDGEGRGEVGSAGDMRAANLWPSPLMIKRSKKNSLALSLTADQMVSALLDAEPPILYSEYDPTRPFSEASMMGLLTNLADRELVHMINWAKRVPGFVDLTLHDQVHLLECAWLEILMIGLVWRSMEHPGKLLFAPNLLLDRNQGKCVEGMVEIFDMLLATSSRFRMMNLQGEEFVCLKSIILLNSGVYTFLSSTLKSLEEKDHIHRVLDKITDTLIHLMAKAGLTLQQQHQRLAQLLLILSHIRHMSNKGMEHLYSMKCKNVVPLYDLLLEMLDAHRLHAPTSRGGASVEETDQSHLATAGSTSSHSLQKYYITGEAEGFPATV
Activity calls are given as the source filed them.
As shown below, each of these compounds has a reported IC50 value.

Some solved cases for reference:
compound: Cc1nn(Cc2ccccc2)c(C)c1NC(=O)CSc1nnc(-c2cc(Cl)ccc2O)n1C
IC50: > 50 µM (not active)

compound: O=C1C2CC=C(Cl)CC2C(=O)N1CCCCCCN1C(=O)C2CC=C(Cl)CC2C1=O (centres undefined)
IC50: 24.7 µM (active)

compound: Cc1cc(C)c2nc(-c3ccccn3)cc(C(=O)NCc3ccco3)c2c1
IC50: > 50 µM (not active)

Input: Check the records and state IC50 for Cc1cccc(N2CCN(c3nc4ccccc4n4cnnc34)CC2)c1C
Output: 38.8 µM (not active)

====

# assayed.target: Methionyl-tRNA synthetase, putative (Trypanosoma brucei brucei);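 also: Read-out by fluorescence polarization, run as a confirmatory high-throughput counterscreen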;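 also: potency of MetRS inhibitors measured by reduced AMP formation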
# Sequence (Q38C91 whole entry): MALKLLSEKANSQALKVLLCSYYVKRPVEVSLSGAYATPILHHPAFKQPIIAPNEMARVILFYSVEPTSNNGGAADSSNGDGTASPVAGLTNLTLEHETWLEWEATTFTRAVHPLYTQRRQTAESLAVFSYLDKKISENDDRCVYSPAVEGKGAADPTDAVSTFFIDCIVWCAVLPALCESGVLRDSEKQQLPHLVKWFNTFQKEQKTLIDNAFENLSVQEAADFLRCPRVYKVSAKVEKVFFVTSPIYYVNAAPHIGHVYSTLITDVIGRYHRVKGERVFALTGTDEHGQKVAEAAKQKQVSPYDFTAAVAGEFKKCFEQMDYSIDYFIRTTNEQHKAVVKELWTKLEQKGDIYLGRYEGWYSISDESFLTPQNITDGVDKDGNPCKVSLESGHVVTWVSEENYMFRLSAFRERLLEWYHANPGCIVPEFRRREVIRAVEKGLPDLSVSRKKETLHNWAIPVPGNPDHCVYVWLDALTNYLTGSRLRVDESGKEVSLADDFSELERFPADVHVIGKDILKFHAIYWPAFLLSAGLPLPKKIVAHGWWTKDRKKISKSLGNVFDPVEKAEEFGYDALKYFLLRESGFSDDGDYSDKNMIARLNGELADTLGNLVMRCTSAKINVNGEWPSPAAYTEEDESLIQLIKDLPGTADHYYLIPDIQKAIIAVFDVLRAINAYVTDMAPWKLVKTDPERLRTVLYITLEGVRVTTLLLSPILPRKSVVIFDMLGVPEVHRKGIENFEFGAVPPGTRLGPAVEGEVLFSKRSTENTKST
# Assay type: functional, Trypanosoma brucei brucei strain 927/4 GUTat10.1
Calls of active or inactive are those of the source.
Permitted responses: active, inactive

Some solved entries appear below for comparison.
molecule: O=C1CC(N(CCc2ccccc2)C(=S)Nc2ccccc2)C(=O)N1c1ccc(Br)cc1 (centres undefined)
category: active
--
molecule: COc1cccc(NC(=O)CN(C)CC(=O)Nc2ccc(Br)cc2)c1
category: inactive
--
molecule: O=C(COC(=O)CCCOc1ccc(Cl)cc1Cl)NCc1ccccc1
category: inactive

Input: Outcome? COc1ccccc1-n1c(SCC(=O)Nc2ccc(Cl)cc2)nc(=O)c(Cc2ccccc2)c1O
Output: active

====

# assayed.target: UniProtKB Q9QUQ5
# Sequence (Q9QUQ5 whole entry): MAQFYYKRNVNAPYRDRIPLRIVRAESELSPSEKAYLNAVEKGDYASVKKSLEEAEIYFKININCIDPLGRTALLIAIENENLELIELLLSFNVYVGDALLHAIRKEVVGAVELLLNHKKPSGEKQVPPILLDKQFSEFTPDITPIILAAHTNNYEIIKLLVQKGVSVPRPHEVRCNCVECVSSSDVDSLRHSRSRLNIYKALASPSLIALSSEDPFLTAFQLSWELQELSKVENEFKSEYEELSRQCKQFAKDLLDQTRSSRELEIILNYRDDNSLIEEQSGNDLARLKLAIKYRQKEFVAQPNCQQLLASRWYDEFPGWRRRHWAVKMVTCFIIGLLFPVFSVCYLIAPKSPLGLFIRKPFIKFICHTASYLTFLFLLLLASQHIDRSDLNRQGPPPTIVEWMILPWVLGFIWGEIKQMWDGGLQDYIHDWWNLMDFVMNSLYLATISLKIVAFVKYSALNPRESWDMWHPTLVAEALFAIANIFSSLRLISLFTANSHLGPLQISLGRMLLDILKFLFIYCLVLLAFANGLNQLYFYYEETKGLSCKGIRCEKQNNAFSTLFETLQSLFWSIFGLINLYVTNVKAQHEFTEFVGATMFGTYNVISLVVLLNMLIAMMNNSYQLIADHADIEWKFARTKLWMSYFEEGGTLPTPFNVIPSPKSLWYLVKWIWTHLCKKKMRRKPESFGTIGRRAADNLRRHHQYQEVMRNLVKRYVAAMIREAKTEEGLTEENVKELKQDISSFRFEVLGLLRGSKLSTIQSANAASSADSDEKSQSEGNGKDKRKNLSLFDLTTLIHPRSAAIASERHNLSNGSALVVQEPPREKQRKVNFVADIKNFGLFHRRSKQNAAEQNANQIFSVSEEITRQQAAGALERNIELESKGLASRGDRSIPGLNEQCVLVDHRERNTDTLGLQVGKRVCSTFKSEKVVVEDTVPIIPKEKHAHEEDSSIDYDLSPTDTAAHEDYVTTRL
# assay.protocol: mouse TRPC4 channel inhibitors, dose response, cell-based, HEK293 TRPC4/mu-opioid, Fluo-4 calcium (AID 434942);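 also: potency of inhibitors blocking the TRPC4 calcium response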
# Assay type: functional
The source made the active and inactive calls.
parameter.measured: EC50

compound: Cc1cc(C)nc(N=C(N)N(Cc2ccccc2)Cc2ccccc2)n1
result: 1500 nM (active)

Input: Check the records and state EC50 for Cc1onc(-c2c(F)cccc2Cl)c1C(=O)N(C)CC(=O)Nc1cccc(F)c1
Output: 2110 nM (active)

Input: Check the records and state EC50 for CC(C)C(NC(=O)c1ccc(C(C)(C)C)cc1)C(=O)NCC(c1ccccc1)N(C)C (stereo not given)
Output: 168 nM (active)

Input: Check the records and state EC50 for C/C(N)=C(/C#N)C(=O)COC(=O)CC12CC3CC(CC(C3)C1)C2
Output: 1500 nM (active)

Input: Check the records and state EC50 for COc1cc(NS(=O)(=O)c2ccc3ccccc3c2)c2ncccc2c1
Output: 668 nM (active)
